# Tested on: Pseudomonas aeruginosa
# Test Description: MIC against Gram-negative bacteria: Pseudomonas aeruginosa
# Type: cell-based
# Test Conditions: Pseudomonas aeruginosa; 96-well plate, 5×10^5 CFU/mL, 37° C., 10 h
Task for the reader: assign each of the following substances its reported MIC (μg/mL) P. aeruginosa.
Give the number; µg/mL is assumed, so skip it.

# PRT120 (CRPCQNGGLATVEGTHCLCHCKPYTFGAACE; listed as Homo sapiens) with Pseudomonas aeruginosa: MIC (μg/mL) P. aeruginosa is 12.5

Entry hF VII-EGF1: human coagulation factor VII-EGF1 domain protein, molecular weight about 3.9 kD, recombinant, released from RFP fusion by rTEV (DGDQCASSPCQNGGSCKDQLQSYICFCLPAFEGRNCE; listed as Homo sapiens) , Pseudomonas aeruginosa data, MIC (μg/mL) P. aeruginosa value: 25

Test item PRT59 (PCTVGDASACLTCAPDNRTRCGTCNTGYMLSQGLCK; listed as Homo sapiens) ; Pseudomonas aeruginosa; reported MIC (μg/mL) P. aeruginosa was 25

Field MIC (μg/mL) P. aeruginosa (Pseudomonas aeruginosa), entry PRT109 (ASQACRTNPCLHGGRCLEVEGHRLCHCPVGYTGAFCD; listed as Homo sapiens) : 12.5

Measured MIC (μg/mL) P. aeruginosa for this entry PRT26 (CDSGPCKNSGFCSERWGSFSCDCPVGFGGKDCQ; listed as Homo sapiens) on Pseudomonas aeruginosa: 25

The substance PRT39 (PVRDCSRNNGGCTRNFKCVSDRQVDSSGCVCPEELKPMKDGSGCY; listed as Homo sapiens) on Pseudomonas aeruginosa: MIC (μg/mL) P. aeruginosa was 50

Param item: PRT58 (PCALGEGPACAHCAPDNSTRCGSCNPGYVLAQGLCR; listed as Homo sapiens) ; param system: Pseudomonas aeruginosa; output MIC (μg/mL) P. aeruginosa: 12.5

So the reported MIC (μg/mL) P. aeruginosa for PRT137 (NPCQGSATCVNTPGERSFLCKCPPGYSGTICE; listed as Homo sapiens) , on Pseudomonas aeruginosa, turned out to be 25

GET /values?item= PRT25 (PGVCRNGGTCTDAPNGGFRCQCPAGGAFEGPRCE; listed as Homo sapiens) &system= Pseudomonas aeruginosa returns MIC (μg/mL) P. aeruginosa: 25

Lab entry: Pseudomonas aeruginosa assay, substance PRT115 (SRNPCSSSPCRGGATCVLGPHGKNYTCRCPQGYQLDSSQLDCV; listed as Homo sapiens) , MIC (μg/mL) P. aeruginosa = 12.5

# PRT7 (TCLSSKEGTICSGNGVCSNELKCVCNRHWIGSDCN; listed as Homo sapiens) with Pseudomonas aeruginosa: MIC (μg/mL) P. aeruginosa is 25

Tested on Pseudomonas aeruginosa, the item PRT89 (TNGQCHCKEFHYRPRGSDSCLPCDCYPVGSTSRSCA; listed as Homo sapiens) showed MIC (μg/mL) P. aeruginosa equal to 12.5

Form: item PRT138 (PCHNNATCEDSVDNYTCHCWPGYTGAQCE; listed as Homo sapiens) ; test system Pseudomonas aeruginosa; MIC (μg/mL) P. aeruginosa: 12.5

Measured on Pseudomonas aeruginosa, PRT81 (TCGPCNCDVSKGFDPDCNKTSGECHCKENHYRPPGSPTCL; listed as Homo sapiens) has a documented MIC (μg/mL) P. aeruginosa of 12.5

Item PRT69 (RRNFCDGRRCQNGGTCVNRWNMYLCECPLRFGGKNCE; listed as Homo sapiens) ; assay system Pseudomonas aeruginosa; MIC (μg/mL) P. aeruginosa reported as 25

Tested system Pseudomonas aeruginosa; MIC (μg/mL) P. aeruginosa recorded for PRT100 (DVNECTSGQNPCHSSTHCLNNVGSYQCRCRPGWQPIPGSPNGPNNTVCE; listed as Homo sapiens) was 12.5

The reported MIC (μg/mL) P. aeruginosa value, Pseudomonas aeruginosa, for PRT1495 (KANCSTTCFNGGTCFYPGKCICPPGLEGE; listed as Homo sapiens) reads 25

So the reported MIC (μg/mL) P. aeruginosa for PRT44 (LYAQVSQSKPCERTGSCFSGRCVNSTCLCDPGWVGDQCQ; listed as Homo sapiens) , on Pseudomonas aeruginosa, turned out to be 25

# PRT74 (CDCFPHGSHSRTCDMATGQCACKPGVIGRQCNRCDNPFAEVTTLGCEV; listed as Homo sapiens) with Pseudomonas aeruginosa: MIC (μg/mL) P. aeruginosa is 25

Here PRT126 (IIDRCVPNHCEHGGKCSQTWDSFKCTCDETGYSGATCH; listed as Homo sapiens) was tested on Pseudomonas aeruginosa, and its MIC (μg/mL) P. aeruginosa came to 12.5

With Pseudomonas aeruginosa as the test system, PRT2 (DQLICVNENGGCEQYCSDHTGTKRSCRCHEGYSLLADGVSCT; listed as Homo sapiens) showed MIC (μg/mL) P. aeruginosa of 50

Reported MIC (μg/mL) P. aeruginosa (Pseudomonas aeruginosa) for entry PRT10 (NCSAQCHNHGVCNHKQECHCHAGWAPPHCA; listed as Homo sapiens) is 12.5

Origin of measurements: patent US9833497B2
